# target: HRgpA-6H (Porphyromonas gingivalis) (UniProt P28784)
# methodNotes: ELISA, Fab FASEBA supernatant on coated HRgpA-6H (0.0625 ug/ml)
The entries below come with measured Ratio OD(Variant)/OD(WT) values attached.
// keep it numeric: no unit symbol after the value

KB001 parental mouse Fab VH variant F101L (Fab, V domains shown) VH: EVQLKQSGPGLVAPSQSLSITCTVSGFSLSIYSVHWVRQPPGKGLEWLGMIWGGGSSDYNSALKSRLSISKDNSKSQVFLKMNSLQTDDTAMYYCARNGNLYAMDYWGQGTSVTVSS VL: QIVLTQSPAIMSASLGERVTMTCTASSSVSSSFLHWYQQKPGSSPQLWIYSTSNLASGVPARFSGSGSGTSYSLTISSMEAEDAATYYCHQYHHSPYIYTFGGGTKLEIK; 0.804
KB001 parental mouse Fab VH variant N100E (Fab, V domains shown) VH: EVQLKQSGPGLVAPSQSLSITCTVSGFSLSIYSVHWVRQPPGKGLEWLGMIWGGGSSDYNSALKSRLSISKDNSKSQVFLKMNSLQTDDTAMYYCARNGEFYAMDYWGQGTSVTVSS VL: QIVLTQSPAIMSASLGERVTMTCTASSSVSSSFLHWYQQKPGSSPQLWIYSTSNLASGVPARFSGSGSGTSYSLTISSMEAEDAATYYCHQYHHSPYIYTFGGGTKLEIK; 0.972
KB001 parental mouse Fab VH variant S65Y (Fab, V domains shown) VH: EVQLKQSGPGLVAPSQSLSITCTVSGFSLSIYSVHWVRQPPGKGLEWLGMIWGGGSSDYNSALKYRLSISKDNSKSQVFLKMNSLQTDDTAMYYCARNGNFYAMDYWGQGTSVTVSS VL: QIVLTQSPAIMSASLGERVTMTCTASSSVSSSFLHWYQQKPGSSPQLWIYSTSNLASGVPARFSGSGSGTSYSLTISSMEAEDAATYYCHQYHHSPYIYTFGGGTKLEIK; 0.875
KB001 parental mouse Fab VH variant S65R (Fab, V domains shown) VH: EVQLKQSGPGLVAPSQSLSITCTVSGFSLSIYSVHWVRQPPGKGLEWLGMIWGGGSSDYNSALKRRLSISKDNSKSQVFLKMNSLQTDDTAMYYCARNGNFYAMDYWGQGTSVTVSS VL: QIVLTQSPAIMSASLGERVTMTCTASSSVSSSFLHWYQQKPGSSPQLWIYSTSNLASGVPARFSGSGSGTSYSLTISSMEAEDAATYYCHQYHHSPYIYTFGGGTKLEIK; 0.96

# next binder below
Form field: reported Ratio OD(Variant)/OD(WT) of KB001 parental mouse Fab VH variant G99F (Fab, V domains shown) VH: EVQLKQSGPGLVAPSQSLSITCTVSGFSLSIYSVHWVRQPPGKGLEWLGMIWGGGSSDYNSALKSRLSISKDNSKSQVFLKMNSLQTDDTAMYYCARNFNFYAMDYWGQGTSVTVSS VL: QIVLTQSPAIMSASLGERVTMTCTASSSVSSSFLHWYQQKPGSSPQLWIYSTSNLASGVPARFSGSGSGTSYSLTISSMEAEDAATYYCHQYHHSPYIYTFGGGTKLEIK
0.967
